Answer each item with its documented folding stability dG.
B1: r16_88_TrROS_Hall (parent)
chain: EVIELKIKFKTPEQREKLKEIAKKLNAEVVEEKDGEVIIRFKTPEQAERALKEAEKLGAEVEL

- Variants of: B1
- experiment_description: folding stability dG (cDNA display proteolysis); higher = more stable
- condition_context: PBS, room temperature
State the answer as a number, implicitly in kJ/mol.

So, P12F ? Its folding stability dG was 20.3

So, A22Y ? Its folding stability dG was 19.8

So, R40Y ? Its folding stability dG was 20.3

So, K24G ? Its folding stability dG was 18.7

So, L51P ? Its folding stability dG was 11.7

So, I3S ? Its folding stability dG was 19.7

So, V29C ? Its folding stability dG was 18.8

So, L18S ? Its folding stability dG was 17.5

So, L57T ? Its folding stability dG was 16.9

So, E16D ? Its folding stability dG was 17.7

So, V29I ? Its folding stability dG was 18

The values you see were collected from the MegaScale stability set (Tsuboyama et al. 2023).
